MEASURED_ON: T1, huCLL1-K244-Avi-Tev-His (human, UniProt Q5QGZ9 65-265)
T1 construct: extracellular domain
T1 sequence (looked up): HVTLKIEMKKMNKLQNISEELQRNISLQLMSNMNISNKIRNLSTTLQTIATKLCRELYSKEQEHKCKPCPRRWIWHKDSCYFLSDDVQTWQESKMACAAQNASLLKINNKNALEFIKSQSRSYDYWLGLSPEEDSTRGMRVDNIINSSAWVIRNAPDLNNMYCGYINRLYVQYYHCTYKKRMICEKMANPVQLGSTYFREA
PROTOCOL_NOTES: BLI
VALUE_KIND: binding result

Polypeptide No. 176 (scFv, V domains shown, scFv) VH: QVQLVQSGAEVKKPGASVKVSCKASGGSFTSYYIHWVRQAPGQGLEWVGWMNPNSGNTGYAQKFQGRVTMTRDTSTSTVYMELSSLRSEDTAVYYCARGATDDAFDIWGQGTMVTVSS VL: DIQMTQSPSSLSASVGDRVTITCRASQNIDTWLAWYQQKPGKAPKLLIYDGSNLEAGVPSRFSGSGSGTDFTLTISSLQPEDFATYYCQQSYNTPITFGQGTRLEIKR | binds
Polypeptide No. 145 (scFv, V domains shown, scFv) VH: QVQLVQSGAEVKKPGASVKVSCKASGGTFSTSYMHWVRQAPGQGLEWMGWIHPDDGNTDYAPKFQGRVTMTRDTSTSTVYMELSSLRSEDTAVYYCARDLGDYDTFDIWGQGTMVTVSS VL: DIQMTQSPSSLSASVGDRVTITCRVSQGISSYLNWYQQKPGKAPKLLIYDASNLQAGVPSRFSGSGSGTDFTLTISSLQPEDFATYYCQQSYSTPPTFGQGTKVEIKR | binds
Polypeptide No. 168 (scFv, V domains shown, scFv) VH: QVQLVQSGAEVKKPGASVKVSCKASGYTFTNYGISWVRQAPGQGLEWMGWINPNSGGTNYAQKFQGRVTMTRDTSTSTVYMELSSLRSEDTAVYYCARVRSDDFFDYWGQGTLVTVSS VL: DIQMTQSPSSLSASVGDRVTITCRASQSVNHWLAWYQQKPGKAPKLLIYAASTLQSGVPSRFSGSGSGTDFTLTISSLQPEDFATYYCQQSYSLPLTFGGGTKVEIKR | binds
